System: soybean
assay method text: Test B pre/postemergence soybean
Assay type: in vivo, Glycine max
test context: Preemergence, Rate 500 g/ha; scale of 0 to 10 where 0 is no effect and 10 is complete control
Measured Plant response rating, Soybean by item
measurement kind: Plant response rating, Soybean

>>> experimental_value("CC(C)N(C(=O)n1oc(=O)n(C(CF)CF)c1=O)c1ccc(F)cc1F [Compound 595]")
4
>>> experimental_value("CCOC(=O)C(C)N(C(=O)n1oc(=O)n(C2CCCCC2)c1=O)c1ccc(F)cc1 (centres unmarked) [Compound 280]")
0
>>> experimental_value("C#CC(C)n1c(=O)on(C(=O)N(c2ccc(Cl)cc2)C(C)C)c1=O (racemic) [Compound 658]")
3
>>> experimental_value("COCCn1c(=O)on(C(=O)N(c2ccc(F)cc2)C(C)C)c1=O [Compound 627]")
5
>>> experimental_value("CCC(C)n1c(=O)on(C(=O)N(c2ccccc2)C(C)C)c1=O (centres unmarked) [Compound 610]")
8
>>> experimental_value("C=C(Cc1ccccc1)Cn1c(=O)on(C(=O)N(c2ccccc2)C(C)C)c1=O [Compound 650]")
0
>>> experimental_value("CC(C)N(C(=O)n1oc(=O)n(CC2CCCCO2)c1=O)c1ccccc1 (centres unmarked) [Compound 659]")
2
>>> experimental_value("CC(C)N(C(=O)n1oc(=O)n(CC(C)(C)C)c1=O)c1ccc(F)cc1F [Compound 277]")
4

###

System: blackgrass
assay method text: Test B pre/postemergence blackgrass
Type: in vivo, Alopecurus myosuroides
test context: Rate 62 g/ha, Postemergence; scale of 0 to 10 where 0 is no effect and 10 is complete control
measurement kind: Blackgrass plant response rating

>>> experimental_value("CC(C)N(C(=O)n1oc(=O)n(CCl)c1=O)c1ccc(F)cc1")
0
>>> experimental_value("CC(C)N(C(=O)n1oc(=O)n(Cc2ccco2)c1=O)c1ccc(F)cc1F")
0
>>> experimental_value("C#CCn1c(=O)on(C(=O)N(c2ccc(F)cc2)C(C)C)c1=O")
6
>>> experimental_value("CCn1c(=O)on(C(=O)N(c2ccccc2)C(C)C)c1=O")
8
>>> experimental_value("Cc1nc(C)c(Cn2c(=O)on(C(=O)N(c3ccc(F)cc3)C(C)C)c2=O)s1")
0

###

Test system: crabgrass
assay method text: Test B pre/postemergence crabgrass
Format: in vivo, Digitaria sanguinalis
test context: Preemergence, Rate 62 g/ha; scale 0 to 10, 0 is no effect, 10 is complete control
measurement kind: Plant response rating, Crabgrass

>>> experimental_value("Cc1cccc(C)c1-n1c(=O)on(C(=O)N(c2ccc(Cl)cc2)C(C)C)c1=O [Compound 47]")
0
>>> experimental_value("Cc1cccc(Cl)c1-n1c(=O)on(C(=O)N(c2ccc(F)cc2)C(C)C)c1=O [Compound 53]")
3
>>> experimental_value("Cc1cccc(C)c1-n1c(=O)on(C(=O)N(c2ccc(F)cc2)C(C)C)c1=O [Compound 18]")
6
>>> experimental_value("Cc1c(Cl)cccc1-n1c(=O)on(C(=O)N(c2ccc(F)cc2)C(C)C)c1=O [Compound 21]")
4

###

Tested on: wild oat
assay method text: Test B pre/postemergence wild oat
Type: in vivo, Avena fatua
test context: Rate 500 g/ha, Postemergence; scale 0 to 10, 0 no effect, 10 complete control
measurement kind: Plant response rating, Wild oats

>>> experimental_value("Cc1ccc(N(C(=O)n2oc(=O)n(-c3ccc4ccccc4c3)c2=O)C(C)C)cc1 [Compound 334]")
0
>>> experimental_value("CCOC(=O)C(C)N(C(=O)n1oc(=O)n(-c2c(C)cccc2OC)c1=O)c1ccc(F)cc1 (centres unmarked) [Compound 331]")
0
>>> experimental_value("CCC(CC)n1c(=O)on(C(=O)N(c2ccccc2)C(C)C)c1=O [Compound 354]")
3
>>> experimental_value("CC(C)C(C)n1c(=O)on(C(=O)N(c2ccccc2)C(C)C)c1=O (centres unmarked) [Compound 355]")
5
>>> experimental_value("Cc1nnsc1Cn1c(=O)on(C(=O)N(c2ccccc2)C(C)C)c1=O [Compound 378]")
0

All figures here come from patent US6737383B1.
